Target: T1, recombinant human Tau monomer, 2N4R isoform (amino acids 2-441) (human, UniProt P10636-8 2-441)
T1 construct: range 2-441; N-terminal His-tag removed with TEV protease; also called monomeric Tau
T1 sequence (P10636 other isoform, or with tags, fused parts or gaps limits assumed): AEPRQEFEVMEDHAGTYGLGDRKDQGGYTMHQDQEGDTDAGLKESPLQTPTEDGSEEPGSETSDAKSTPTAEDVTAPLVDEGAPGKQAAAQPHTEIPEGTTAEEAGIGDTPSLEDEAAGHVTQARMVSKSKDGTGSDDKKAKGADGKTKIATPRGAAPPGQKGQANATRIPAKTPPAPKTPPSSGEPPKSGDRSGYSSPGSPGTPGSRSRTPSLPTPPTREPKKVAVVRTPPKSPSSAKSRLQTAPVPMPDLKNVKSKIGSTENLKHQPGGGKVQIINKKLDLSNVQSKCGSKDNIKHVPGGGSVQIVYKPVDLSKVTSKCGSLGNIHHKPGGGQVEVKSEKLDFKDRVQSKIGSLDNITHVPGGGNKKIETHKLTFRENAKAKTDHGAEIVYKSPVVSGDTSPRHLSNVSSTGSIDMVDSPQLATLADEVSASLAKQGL
Assay: SPR; Normalized Rmax post-stress (2 weeks 40 C) / pre-stress
property: Stability Index (%)
Unit % implied. Number only.

Quick one: Stability Index of hu37D3.v28.F3 (antibody, V domains shown) VH: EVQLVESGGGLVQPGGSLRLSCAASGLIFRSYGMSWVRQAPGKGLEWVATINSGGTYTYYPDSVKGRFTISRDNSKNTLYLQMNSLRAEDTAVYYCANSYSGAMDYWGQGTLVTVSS VL: DDVLTQTPLSLPVTPGQPASISCRSSQSIVHTNANTYFEWYLQKPGQSPQLLIYKVSNRFSGVPDRFSGSGSGTDFTLKISRVEAEDVGVYYCFQGSLVPWTFGQGTKVEIK ?
70

For the binder hu37D3.v28.A4 (antibody, V domains shown, also called hu37D3-H9.v28.A4) VH: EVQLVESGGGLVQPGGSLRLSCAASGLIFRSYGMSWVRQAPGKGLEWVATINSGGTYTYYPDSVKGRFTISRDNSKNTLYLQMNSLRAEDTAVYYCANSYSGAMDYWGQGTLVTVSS VL: DDVLTQTPLSLPVTPGQPASISCRSSQSIVHSNGNTYLEWYLQKPGQSPQLLIYKVSNRFSGVPDRFSGSGSGTDFTLKISRVEAEDVGVYYCFQGSLVPWTFGQGTKVEIK , what Stability Index is on record?
96

Please report the recorded Stability Index for hu37D3-H9.v5.5 (antibody, V domains shown) VH: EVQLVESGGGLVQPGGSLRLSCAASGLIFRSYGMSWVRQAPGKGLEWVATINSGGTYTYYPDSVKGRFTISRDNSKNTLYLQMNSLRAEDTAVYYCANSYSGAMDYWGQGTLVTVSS VL: EDVLTQTPLSLPVTPGQPASISCRSSQSIVHSEGNTYFEWYLQKPGQSPQLLIYKVSNRFSGVPDRFSGSGSGTDFTLKISRVEAEDVGVYYCFQGSLVPWTFGQGTKVEIK .
75

Tell me the measured Stability Index of hu37D3-H9.v30.6 (antibody, V domains shown) VH: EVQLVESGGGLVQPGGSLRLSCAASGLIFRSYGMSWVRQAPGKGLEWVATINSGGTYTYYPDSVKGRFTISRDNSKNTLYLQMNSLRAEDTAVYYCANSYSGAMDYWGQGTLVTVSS VL: DDVLTQTPLSLPVTPGQPASISCRSSQSIVHSPGNTYFEWYLQKPGQSPQLLIYKVSNRFSGVPDRFSGSGSGTDFTLKISRVEAEDVGVYYCFQGSLVPWTFGQGTKVEIK , please.
270

For hu37D3.v29.9 (antibody, V domains shown) VH: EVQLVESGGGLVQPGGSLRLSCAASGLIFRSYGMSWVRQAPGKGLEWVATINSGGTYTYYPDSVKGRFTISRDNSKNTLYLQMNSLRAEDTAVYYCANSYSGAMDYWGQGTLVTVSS VL: EDVLTQTPLSLPVTPGQPASISCRSSQSIVHSNAQTYFEWYLQKPGQSPQLLIYKVSNRFSGVPDRFSGSGSGTDFTLKISRVEAEDVGVYYCFQGSLVPWTFGQGTKVEIK , what is its reported Stability Index?
86

Entry hu37D3.v29.11 (antibody, V domains shown) VH: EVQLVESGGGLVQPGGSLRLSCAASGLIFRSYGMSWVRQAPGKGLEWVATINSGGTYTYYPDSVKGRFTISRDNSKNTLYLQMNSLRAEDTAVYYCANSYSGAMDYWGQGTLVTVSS VL: EDVLTQTPLSLPVTPGQPASISCRSSQSIVHSNAATYFEWYLQKPGQSPQLLIYKVSNRFSGVPDRFSGSGSGTDFTLKISRVEAEDVGVYYCFQGSLVPWTFGQGTKVEIK has what Stability Index?
67

Which Stability Index is listed for hu37D3-H9.v5.6 (antibody, V domains shown) VH: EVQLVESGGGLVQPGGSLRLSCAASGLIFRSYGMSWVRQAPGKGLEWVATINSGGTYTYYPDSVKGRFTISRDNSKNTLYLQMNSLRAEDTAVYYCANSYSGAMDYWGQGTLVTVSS VL: EDVLTQTPLSLPVTPGQPASISCRSSQSIVHSAGNTYFEWYLQKPGQSPQLLIYKVSNRFSGVPDRFSGSGSGTDFTLKISRVEAEDVGVYYCFQGSLVPWTFGQGTKVEIK ?
67

Return reported Stability Index; argument: hu37D3-H9.v31.14 (antibody, V domains shown) VH: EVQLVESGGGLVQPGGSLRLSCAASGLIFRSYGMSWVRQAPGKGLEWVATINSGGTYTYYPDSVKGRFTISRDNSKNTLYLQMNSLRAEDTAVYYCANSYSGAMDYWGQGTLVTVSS VL: DDVLTQTPLSLPVTPGQPASISCRSSQSIVHSNANRYFEWYLQKPGQSPQLLIYKVSNRFSGVPDRFSGSGSGTDFTLKISRVEAEDVGVYYCFQGSLVPWTFGQGTKVEIK
86

# lookup: Stability Index of hu37D3-H9.v31.5 (antibody, V domains shown) VH: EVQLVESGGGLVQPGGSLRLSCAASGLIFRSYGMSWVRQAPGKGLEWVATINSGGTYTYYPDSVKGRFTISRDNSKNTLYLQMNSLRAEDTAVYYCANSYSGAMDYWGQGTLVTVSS VL: DDVLTQTPLSLPVTPGQPASISCRSSQSIVHSNAFTYFEWYLQKPGQSPQLLIYKVSNRFSGVPDRFSGSGSGTDFTLKISRVEAEDVGVYYCFQGSLVPWTFGQGTKVEIK
85

Find the recorded Stability Index belonging to hu37D3.v28.A30 (antibody, V domains shown) VH: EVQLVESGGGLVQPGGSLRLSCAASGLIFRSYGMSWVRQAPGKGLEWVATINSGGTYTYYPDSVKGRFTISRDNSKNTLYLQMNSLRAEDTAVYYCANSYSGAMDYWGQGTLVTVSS VL: DVVMTQTPLSLPVTPGQPASISCRSSQSIVHSNGNTYLEWYLQKPGQSPQLLIYKVSNRFSGVPDRFSGSGSGTDFTLKISRVEAEDVGVYYCFQGSHVPWTFGQGTKVEIK and report it.
77

Where do the numbers come from? From patent US20190367592A1.
